# test summary: Selectivity index, ratio of IC50 for rat L6 cells to IC50 for erythrocytic stage of chloroquine and pyrimethamine-resistant Plasmodium falciparum K1
# Format: toxicity, cell-based
# study conditions: read-out: Ratio IC50
recorded endpoint: selectivity ratio
Number only, please.

Below: 4 molecules and their reported selectivity ratio.
smiles code | selectivity ratio
O=C(CCc1ccccc1O)NCCCNCCCCNCCCNC(=O)CCc1ccccc1O | 5700
COc1ccccc1CC(=O)NCCCNCCCCCCCCCCCCNCCCNC(=O)Cc1ccccc1OC | 269
CC(C)(C)OC(=O)N(CCCCCCCCN(CCCNC(=O)Cc1ccccc1)C(=O)OC(C)(C)C)CCCNC(=O)Cc1ccccc1 | 18
CC(C)(C)OC(=O)N(CCCCCCCCN(CCCNC(=O)Cc1ccccc1O)C(=O)OC(C)(C)C)CCCNC(=O)Cc1ccccc1O | 22

Request: # query: selectivity ratio of entry COc1ccc(OC)c(CC(=O)NCCCNCCCCCCCCCCCCNCCCNC(=O)Cc2cc(OC)ccc2OC)c1
Response: 121

Request: I'd like to know its selectivity ratio. The molecule in question is CC(C)(C)OC(=O)N(CCCCCCCCCCCCN(CCCNC(=O)c1ccccc1O)C(=O)OC(C)(C)C)CCCNC(=O)c1ccccc1O
Response: 186

Request: Look up selectivity ratio for this molecule: COc1ccc(OC)c(CCC(=O)NCCCN(CCCCCCCCCCCCN(CCCNC(=O)CCc2cc(OC)ccc2OC)C(=O)OC(C)(C)C)C(=O)OC(C)(C)C)c1
Response: 13

Request: Bench note: what selectivity ratio did O=C(NCCCNCCCCNCCCNC(=O)c1ccccc1O)c1ccccc1O show?
Response: 44

Request: If you can, please state the reported selectivity ratio value of COc1ccc(OC)c(C(=O)NCCCN(CCCCCCCCCCCCN(CCCNC(=O)c2cc(OC)ccc2OC)C(=O)OC(C)(C)C)C(=O)OC(C)(C)C)c1 .
Response: 10

Request: # get_value(readout='selectivity ratio', item= O=C(Cc1ccccc1)NCCCNCCCCCCCCNCCCNC(=O)Cc1ccccc1 )
Response: 4930

Request: Suppose we examine the molecule COc1ccc(OC)c(CC(=O)NCCCN(CCCCCCCCCCCCN(CCCNC(=O)Cc2cc(OC)ccc2OC)C(=O)OC(C)(C)C)C(=O)OC(C)(C)C)c1 ; what selectivity ratio value has been reported?
Response: 14

Request: What value of measured selectivity ratio is listed for CC(C)(C)OC(=O)N(CCCCCCCCCCCCN(CCCNC(=O)CCc1ccccc1)C(=O)OC(C)(C)C)CCCNC(=O)CCc1ccccc1 ?
Response: 17

Request: For the molecule shown here, O=C(NCCCNCCCCCCCCCCCCNCCCNC(=O)c1ccccc1)c1ccccc1 , give the reported selectivity ratio.
Response: 43

Request: Field request: selectivity ratio | item: COc1ccc(OC)c(CC(=O)NCCCNCCCCCCCCNCCCNC(=O)Cc2cc(OC)ccc2OC)c1
Response: 5080

Request: What does the data say about its selectivity ratio? Entry: O=C(CCc1ccccc1)NCCCNCCCCCCCCCCCCNCCCNC(=O)CCc1ccccc1
Response: 95

Request: Entry under review: COc1ccccc1CC(=O)NCCCN(CCCCCCCCCCCCN(CCCNC(=O)Cc1ccccc1OC)C(=O)OC(C)(C)C)C(=O)OC(C)(C)C . Reported selectivity ratio?
Response: 5.9

Request: Which selectivity ratio value belongs to COc1ccc(CCC(=O)NCCCNCCCCNCCCNC(=O)CCc2ccc(OC)c(OC)c2)cc1OC ?
Response: 160
